# subjectOfTest: T1, recombinant human 4R0N tau (human, UniProt P10636 2-758)
# T1 construct: also called P10636-6
# testDescription: SPR, Biacore T200, antibody captured on anti-human Fc, tau as analyte, 1:1 fit
As shown below, each of these binders has a reported kon value.

binder	kon, M⁻¹ s⁻¹
h3D6VHvb8/L2-DIM8 (antibody, V domains shown, Humanized antibody with human Fc; also called hu3D6VHv1bA11 D60E / hu3D6VLv2 L37Q) VH: EVQLVQSGAEVVKPGATVKISCKASGFNIKDYYLHWVRQRPGQGLEWIGWIDPENGDTVYEPKFQGRATITADTSTDTAYLQLGSLTSEDTAVYFCSTLDFWGQGTLVTVSS VL: DVVMTQSPLSLPVTLGQPASISCKSSQSLLDSDGKTYLNWLQQRPGQSPRRLIYLVSKLDSGVPDRFSGSGSGTDFTLKISRVEAEDVGVYYCWQGTHFPYTFGGGTKLEIK	3.28e+06
hu3D6VHv1bA11/L2-DIM13 (antibody, V domains shown, Humanized antibody with human Fc) VH: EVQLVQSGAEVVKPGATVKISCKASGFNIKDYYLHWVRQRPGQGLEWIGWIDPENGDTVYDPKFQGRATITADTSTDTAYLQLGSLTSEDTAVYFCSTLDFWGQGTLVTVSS VL: DVVMTQSPLSLPVTLGQPASISCKSSQSLLDSDGKTYLNWLQQRPGQSPRRLIYGVSKLDSGVPDRFSGSGSGTDFTLKISRVEAEDVGVYYCWQGTHFPYTFGGGTKLEIK	3.15e+06
hu3D6VHv1bA11/L2-DIM12 (antibody, V domains shown, Humanized antibody with human Fc) VH: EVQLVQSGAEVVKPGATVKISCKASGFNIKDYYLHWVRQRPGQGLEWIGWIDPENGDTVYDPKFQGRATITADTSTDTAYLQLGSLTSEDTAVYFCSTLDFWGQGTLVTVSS VL: DVVMTQSPLSLPVTLGQPASISCKSSQSLLDSDGKTYLNWLQQRPGQSPRRLIYLVSKDDSGVPDRFSGSGSGTDFTLKISRVEAEDVGVYYCWQGTHFPYTFGGGTKLEIK	2.74e+06
hu3D6VHv1bA11/L2-DIM9 (antibody, V domains shown, Humanized antibody with human Fc; also called hu3D6VHv1bA11 / hu3D6VLv2 S52G) VH: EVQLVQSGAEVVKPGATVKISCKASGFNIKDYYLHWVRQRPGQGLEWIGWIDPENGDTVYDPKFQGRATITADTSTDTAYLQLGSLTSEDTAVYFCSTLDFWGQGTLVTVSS VL: DVVMTQSPLSLPVTLGQPASISCKSSQSLLDSDGKTYLNWLLQRPGQSPRRLIYLVGKLDSGVPDRFSGSGSGTDFTLKISRVEAEDVGVYYCWQGTHFPYTFGGGTKLEIK	4.63e+06
hu3D6VHv1bA11/L2-DIM4 (antibody, V domains shown) VH: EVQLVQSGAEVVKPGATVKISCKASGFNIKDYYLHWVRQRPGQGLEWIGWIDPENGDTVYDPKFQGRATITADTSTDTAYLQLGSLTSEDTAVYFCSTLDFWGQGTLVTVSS VL: DVVMTQSPLSLPVTLGQPASISCKSSQSLLDSDGKTYLNWLQQRPGQSPRRLIYLVGKRDSGVPDRFSGSGSGTDFTLKISRVEAEDVGVYYCWQGTHFPYTFGGGTKLEIK	5.65e+06
h3D6VHvb8/L2-DIM7 (antibody, V domains shown, Humanized antibody with human Fc; also called hu3D6VHv1bA11 D60E / hu3D6VLv2 L54G) VH: EVQLVQSGAEVVKPGATVKISCKASGFNIKDYYLHWVRQRPGQGLEWIGWIDPENGDTVYEPKFQGRATITADTSTDTAYLQLGSLTSEDTAVYFCSTLDFWGQGTLVTVSS VL: DVVMTQSPLSLPVTLGQPASISCKSSQSLLDSDGKTYLNWLLQRPGQSPRRLIYLVSKGDSGVPDRFSGSGSGTDFTLKISRVEAEDVGVYYCWQGTHFPYTFGGGTKLEIK	4.31e+06
hu3D6VHv1bA11/L2-DIM18 (antibody, V domains shown, Humanized antibody with human Fc) VH: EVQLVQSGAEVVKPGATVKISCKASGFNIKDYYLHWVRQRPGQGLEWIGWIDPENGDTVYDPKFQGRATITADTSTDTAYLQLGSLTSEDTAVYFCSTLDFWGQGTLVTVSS VL: DVVMTQSPLSLPVTLGQPASISCKSSQSLLDSDGKTYLNWLQQRPGQSPRRLIYDVSKRDSGVPDRFSGSGSGTDFTLKISRVEAEDVGVYYCWQGTHFPYTFGGGTKLEIK	1.51e+06
hu3D6VHv1bA11/L2-DIM20 (antibody, V domains shown, Humanized antibody with human Fc) VH: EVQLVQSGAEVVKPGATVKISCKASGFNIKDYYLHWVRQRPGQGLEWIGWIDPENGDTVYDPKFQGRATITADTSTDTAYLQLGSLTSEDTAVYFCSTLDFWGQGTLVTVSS VL: DVVMTQSPLSLPVTLGQPASISCKSSQSLLDSDGKTYLNWLQQRPGQSPRRLIYEVSKRDSGVPDRFSGSGSGTDFTLKISRVEAEDVGVYYCWQGTHFPYTFGGGTKLEIK	260000
hu3D6VHv1bA11/L2-DIM7 (antibody, V domains shown, Humanized antibody with human Fc; also called hu3D6VHv1bA11 / hu3D6VLv2 L54G) VH: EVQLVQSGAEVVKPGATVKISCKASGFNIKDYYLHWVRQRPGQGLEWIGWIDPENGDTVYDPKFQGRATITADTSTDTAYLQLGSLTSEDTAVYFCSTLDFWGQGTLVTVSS VL: DVVMTQSPLSLPVTLGQPASISCKSSQSLLDSDGKTYLNWLLQRPGQSPRRLIYLVSKGDSGVPDRFSGSGSGTDFTLKISRVEAEDVGVYYCWQGTHFPYTFGGGTKLEIK	3.46e+06
hu3D6VHv1bA11/L2-DIM21 (antibody, V domains shown, Humanized antibody with human Fc; also called hu3D6VHv1bA11 / hu3D6VLv2 L54D) VH: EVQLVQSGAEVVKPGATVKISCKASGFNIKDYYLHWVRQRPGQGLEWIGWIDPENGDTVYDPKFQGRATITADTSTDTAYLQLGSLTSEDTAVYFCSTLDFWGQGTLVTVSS VL: DVVMTQSPLSLPVTLGQPASISCKSSQSLLDSDGKTYLNWLLQRPGQSPRRLIYLVSKDDSGVPDRFSGSGSGTDFTLKISRVEAEDVGVYYCWQGTHFPYTFGGGTKLEIK	2.15e+06
h3D6VHvb8/L2-DIM4 (antibody, V domains shown, Humanized antibody with human Fc) VH: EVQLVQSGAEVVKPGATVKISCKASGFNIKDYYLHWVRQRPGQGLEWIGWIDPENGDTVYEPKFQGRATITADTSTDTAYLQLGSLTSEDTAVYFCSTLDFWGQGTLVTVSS VL: DVVMTQSPLSLPVTLGQPASISCKSSQSLLDSDGKTYLNWLQQRPGQSPRRLIYLVGKRDSGVPDRFSGSGSGTDFTLKISRVEAEDVGVYYCWQGTHFPYTFGGGTKLEIK	4.51e+06
hu3D6VHv1bA11/L2-DIM6 (antibody, V domains shown, Humanized antibody with human Fc) VH: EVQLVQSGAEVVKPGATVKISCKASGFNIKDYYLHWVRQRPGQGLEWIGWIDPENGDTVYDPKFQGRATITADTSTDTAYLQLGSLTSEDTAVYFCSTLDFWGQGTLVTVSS VL: DVVMTQSPLSLPVTLGQPASISCKSSQSLLDSDGKTYLNWLQQRPGQSPRRLIYLVGKDDSGVPDRFSGSGSGTDFTLKISRVEAEDVGVYYCWQGTHFPYTFGGGTKLEIK	3.08e+06

Values compiled from patent US20200369755A1.
